- tested system: Triosephosphate isomerase (Homo sapiens, UniProt P60174)
- Sequence (P60174 whole entry): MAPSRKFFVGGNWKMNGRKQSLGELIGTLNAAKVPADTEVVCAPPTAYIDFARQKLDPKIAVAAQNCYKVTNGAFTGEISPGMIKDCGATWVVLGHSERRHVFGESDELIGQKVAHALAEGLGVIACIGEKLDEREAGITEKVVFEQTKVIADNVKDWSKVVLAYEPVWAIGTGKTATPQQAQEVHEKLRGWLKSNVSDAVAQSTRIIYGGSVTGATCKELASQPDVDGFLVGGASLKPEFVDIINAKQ
parameter: IC50

Exercise: Could you tell me which IC50 is on file for O=C1C(=Cc2ccc([N+](=O)[O-])o2)C(=O)N(Cc2ccccc2)SN1Cc1ccccc1 ?
Key: > 100 µM
